Target: T1, TNFR1 (Homo sapiens, UniProt P19438)
T1 chain: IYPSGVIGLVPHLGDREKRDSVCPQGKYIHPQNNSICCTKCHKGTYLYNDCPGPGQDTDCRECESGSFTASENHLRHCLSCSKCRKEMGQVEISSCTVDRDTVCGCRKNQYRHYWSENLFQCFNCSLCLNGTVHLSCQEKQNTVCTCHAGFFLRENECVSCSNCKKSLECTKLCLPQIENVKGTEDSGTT
Assay: yeast display SC50
Label scheme, based on apparent Kd (screen): bucket A = under 0.5 nM, bucket B = from 0.5 nM up to 1 nM, bucket C = 1 nM and over

[[record]]
binder = "A91L (designed binder) MTLQELLREEALRRAEAEAFRYALELLAEKFPEQKEYLLDLAEEIESQIRSLSGVDVEDVRKFLDKEWAWVKELLAEHPAELAEVEAARALRLAELRAEVEAKVAA"
discrete_label = "bucket B"

[[record]]
binder = "E81W (designed binder) MTLQELLREEALRRAEAEAFRYALELLAEKFPEQKEYLLDLAEEIESQIRSLSGVDVEDVRKFLDKEWAWVKELLAEHPAWLAEVEAARAARLAELRAEVEAKVAA"
discrete_label = "bucket B"

[[record]]
binder = "L64R (designed binder) MTLQELLREEALRRAEAEAFRYALELLAEKFPEQKEYLLDLAEEIESQIRSLSGVDVEDVRKFRDKEWAWVKELLAEHPAELAEVEAARAARLAELRAEVEAKVAA"
discrete_label = "bucket C"

[[record]]
binder = "D56L (designed binder) MTLQELLREEALRRAEAEAFRYALELLAEKFPEQKEYLLDLAEEIESQIRSLSGVLVEDVRKFLDKEWAWVKELLAEHPAELAEVEAARAARLAELRAEVEAKVAA"
discrete_label = "bucket C"

[[record]]
binder = "K30V (designed binder) MTLQELLREEALRRAEAEAFRYALELLAEVFPEQKEYLLDLAEEIESQIRSLSGVDVEDVRKFLDKEWAWVKELLAEHPAELAEVEAARAARLAELRAEVEAKVAA"
discrete_label = "bucket A"

[[record]]
binder = "A17S (designed binder) MTLQELLREEALRRAESEAFRYALELLAEKFPEQKEYLLDLAEEIESQIRSLSGVDVEDVRKFLDKEWAWVKELLAEHPAELAEVEAARAARLAELRAEVEAKVAA"
discrete_label = "bucket B"

[[record]]
binder = "V57S (designed binder) MTLQELLREEALRRAEAEAFRYALELLAEKFPEQKEYLLDLAEEIESQIRSLSGVDSEDVRKFLDKEWAWVKELLAEHPAELAEVEAARAARLAELRAEVEAKVAA"
discrete_label = "bucket B"

[[record]]
binder = "S51M (designed binder) MTLQELLREEALRRAEAEAFRYALELLAEKFPEQKEYLLDLAEEIESQIRMLSGVDVEDVRKFLDKEWAWVKELLAEHPAELAEVEAARAARLAELRAEVEAKVAA"
discrete_label = "bucket B"

[[record]]
binder = "L6D (designed binder) MTLQEDLREEALRRAEAEAFRYALELLAEKFPEQKEYLLDLAEEIESQIRSLSGVDVEDVRKFLDKEWAWVKELLAEHPAELAEVEAARAARLAELRAEVEAKVAA"
discrete_label = "bucket C"

[[record]]
binder = "I49H (designed binder) MTLQELLREEALRRAEAEAFRYALELLAEKFPEQKEYLLDLAEEIESQHRSLSGVDVEDVRKFLDKEWAWVKELLAEHPAELAEVEAARAARLAELRAEVEAKVAA"
discrete_label = "bucket A"

[[record]]
binder = "E16R (designed binder) MTLQELLREEALRRARAEAFRYALELLAEKFPEQKEYLLDLAEEIESQIRSLSGVDVEDVRKFLDKEWAWVKELLAEHPAELAEVEAARAARLAELRAEVEAKVAA"
discrete_label = "bucket C"

[[record]]
binder = "V55Y (designed binder) MTLQELLREEALRRAEAEAFRYALELLAEKFPEQKEYLLDLAEEIESQIRSLSGYDVEDVRKFLDKEWAWVKELLAEHPAELAEVEAARAARLAELRAEVEAKVAA"
discrete_label = "bucket B"

[[record]]
binder = "A76H (designed binder) MTLQELLREEALRRAEAEAFRYALELLAEKFPEQKEYLLDLAEEIESQIRSLSGVDVEDVRKFLDKEWAWVKELLHEHPAELAEVEAARAARLAELRAEVEAKVAA"
discrete_label = "bucket B"

